Quick list: cytotoxicity at 10 µM per entry.
Test: Toxicity liver stage against HepG2, at 10uM
Format: cell-based
Parameters: test concentration 10 uM, cell line HepG2-A16-CD81EGFP
Settings: human, HepG2-A16-CD81EGFP cells; read-out: INHIBITION
Assay Endpoint: cytotoxicity at 10 µM (%)

compound=CCOC(=O)[C@]12CCCN(Cc3ccco3)C[C@H]1CN(CCN(C)C)C2 value_reported=-17.9
compound=Cc1ccc(C(=O)NC2CC2)c(-n2cnnn2)c1C value_reported=-2.27
compound=Cc1cc(=O)n2nc(Oc3ccc(Cl)c(C)c3)sc2n1 value_reported=-19
compound="O=C(c1cccc2c1OCO2)N1CCCC(n2ccnc2)C1 (stereo unspecified)" value_reported=-3.29
compound="CC(C)c1nnc(CN2CCCC2C(=O)OCc2ccccc2)o1 (stereo unspecified)" value_reported=2.78
compound="Cc1c(C(=O)NC(C)C(C)C)nnn1-c1cccc2c1CCN(C)C2 (stereo unspecified)" value_reported=-9.03
